B1: INTS4 (parent)
chain: IRLVDDAFGKICHMVSDGSWVVRV

# Variants of: B1
# Test: protein stability index of a GFP-peptide fusion (GPS, HEK-293T) (PSI 1-6); higher = more stable;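 further: lentivirally expressed fusions sorted by FACS into six bins by GFP to DsRed ratio, PSI derived from sequencing read proportions per bin multiplied by bin number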
# Test Context: c terminus: a fixed tail appended

>  <Variant Description>
H13A

>  <protein stability index>
3.2

$$$$
>  <Variant Description>
G18S

>  <protein stability index>
1.88

$$$$
>  <Variant Description>
D6Q

>  <protein stability index>
4.08

$$$$
>  <Variant Description>
V24T

>  <protein stability index>
4

$$$$
>  <Variant Description>
L3R

>  <protein stability index>
2.08

$$$$
>  <Variant Description>
I1T

>  <protein stability index>
3.21

$$$$
>  <Variant Description>
G18R

>  <protein stability index>
2.9

$$$$
>  <Variant Description>
I11Y

>  <protein stability index>
3.31

$$$$
>  <Variant Description>
R23A

>  <protein stability index>
4.14

$$$$
>  <Variant Description>
V4R

>  <protein stability index>
1.47

$$$$
>  <Variant Description>
D6G

>  <protein stability index>
2.84

$$$$
>  <Variant Description>
V21G

>  <protein stability index>
1.89

$$$$
>  <Variant Description>
V22E

>  <protein stability index>
2.56

$$$$
>  <Variant Description>
K10R

>  <protein stability index>
4.19

$$$$
>  <Variant Description>
V21R

>  <protein stability index>
2.88

$$$$
>  <Variant Description>
D17K

>  <protein stability index>
1.48

$$$$
>  <Variant Description>
M14S

>  <protein stability index>
2.48

$$$$
>  <Variant Description>
G18K

>  <protein stability index>
3.25

$$$$
>  <Variant Description>
G9E

>  <protein stability index>
1.14

$$$$
>  <Variant Description>
V15I

>  <protein stability index>
2.87

$$$$
>  <Variant Description>
M14N

>  <protein stability index>
5.13

$$$$
>  <Variant Description>
V4S

>  <protein stability index>
2.82

$$$$
>  <Variant Description>
S19Q

>  <protein stability index>
3.45

$$$$
>  <Variant Description>
D6V

>  <protein stability index>
2.35

$$$$
>  <Variant Description>
D17L

>  <protein stability index>
2.79

$$$$
>  <Variant Description>
D5S

>  <protein stability index>
2.3

$$$$
>  <Variant Description>
I1E

>  <protein stability index>
2.77

$$$$
>  <Variant Description>
R23T

>  <protein stability index>
1.88

$$$$
>  <Variant Description>
V24Y

>  <protein stability index>
3.37

$$$$
>  <Variant Description>
V4M

>  <protein stability index>
4.21

$$$$
>  <Variant Description>
M14A

>  <protein stability index>
2.75

$$$$
>  <Variant Description>
A7M

>  <protein stability index>
2.62

$$$$
>  <Variant Description>
V15H

>  <protein stability index>
2.22

$$$$

Source: the supplement of paper PMC10567573
